Below, each entry is listed with its recorded EC50.
System: hMPV A2 TN/94-49
protocol description: HMPV antiviral assay Method 2 (LLC-MK2 cells with CP-100-356, ATP-Lite)
Type: cell-based
protocol conditions: hMPV A2 TN/94-49, LLC-MK2 cells, 4 μM CP-100-356, Method 2
Procedure: In vitro HMPV antiviral activity was evaluated using the clinical isolate A2 strain TN 94-49 (obtained from Dr. John Williams, Vanderbilt University, Tennessee) and LLC-MK2 cells (Millipore Sigma CB_85062804), an immortalized kidney epithelial cell line from Macaca mulatta. […] The test compounds were assessed in duplicate at a top concentration of 200 nM followed by 2.5-fold serial dilutions to give a total of 10 concentration points. […]

(Q) What value of measured EC50 is listed for COc1cc(C(=O)NC[C@@](O)(c2ccccc2)c2cc3c(c(-c4cc(C(F)F)c(F)cc4F)n2)OC[C@]3(C)C(N)=O)cc2cn(C3(F)CC3)nc12 [Example 298] ?
(A) < 200 nM

(Q) # get_value(readout='EC50', item= COc1cc(C(=O)NC[C@@](O)(c2ccccc2)c2cc3c(c(-c4cc(Cl)c(F)cc4F)n2)OC[C@]3(C)C(N)=O)cc2cc(C)nnc12 [Example 89] )
(A) < 200 nM

(Q) What value of measured EC50 is listed for COc1cc(C(=O)NC[C@@](O)(c2ccccc2)c2cc3c(c(-c4cc(C(F)(F)F)c(F)cc4F)n2)OC[C@]3(C)C(N)=O)cc2cn(C3CC3)nc12 [Example 302] ?
(A) < 200 nM

(Q) Please look up its EC50: Cc1nc2c(OC3CC3)cc(C(=O)NC[C@@](O)(c3ccccc3)c3cc4c(c(-c5cc(Cl)c(F)cc5F)n3)OC[C@]4(C)C(N)=O)cc2o1 [Example 234]
(A) < 200 nM

(Q) State the recorded EC50 for this entry: COc1cc(C(=O)NC[C@@](O)(c2ccccc2)c2cc3c(c(-c4cc(Cl)c(F)cc4F)n2)OC[C@]3(C)C(N)=O)cc2cc(C3CC3)nnc12 [Example 90]
(A) < 200 nM

(Q) Which EC50 is reported for this compound? C[C@]1(C(N)=O)COc2c1cc([C@@](O)(CNC(=O)c1cc(OC3CC3)c3nn(C4(F)CC4)cc3c1)c1ccccc1)nc2-c1cccc(Cl)c1Cl [Example 266]
(A) < 200 nM

(Q) Given COc1cc(C(=O)NC[C@@](O)(c2ccccc2)c2cc3c(c(-c4ccc(S(C)(=O)=O)cc4F)n2)OC[C@]3(C)C(N)=O)cc2cn(C3(F)CC3)nc12 [Example 371] , state its recorded EC50.
(A) > 200 nM

(Q) GET /values?readout=EC50&item= COc1cc(C(=O)NC[C@@](O)(c2cccc(F)c2)c2cc3c(c(-c4cccc(Cl)c4Cl)n2)OC[C@]3(C)C(N)=O)cc2cn(C3(F)CC3)nc12 [Example 291]
(A) < 200 nM

(Q) State the recorded EC50 for this entry: COc1cc(C(=O)NC[C@@](O)(c2cccc(F)c2)c2cc3c(c(-c4cc(F)c(F)cc4C(N)=O)n2)OC[C@]3(C)C(N)=O)cc2cn(C3(F)CC3)nc12 [Example 405]
(A) > 200 nM

(Q) What does the record list as EC50 for C[C@]1(C(N)=O)COc2c1cc([C@@](O)(CNC(=O)c1cc(OC3CC3)c3nn(C(F)F)cc3c1)C1CC(F)(F)C1)nc2-c1cc(F)c(F)cc1F [Example 34] ?
(A) < 200 nM

(Q) Reported EC50, compound COc1cc(C(=O)NC[C@@](O)(c2ccccc2)c2cc3c(c(-c4cccc(Cl)c4Cl)n2)OC[C@]3(C)C(N)=O)cc2oc(C3CC3)nc12 [Example 96] : ____
(A) < 200 nM
